The reported numbers originate from the supplement of paper PMC7877785.

# measurementProtocol: self-splicing fitness, log relative to wild type (ln ratio); higher = more splicing; Tetrahymena group I intron in knt gene, E. coli kanamycin selection, DiMSum; sequences stand for … in CUCUCU…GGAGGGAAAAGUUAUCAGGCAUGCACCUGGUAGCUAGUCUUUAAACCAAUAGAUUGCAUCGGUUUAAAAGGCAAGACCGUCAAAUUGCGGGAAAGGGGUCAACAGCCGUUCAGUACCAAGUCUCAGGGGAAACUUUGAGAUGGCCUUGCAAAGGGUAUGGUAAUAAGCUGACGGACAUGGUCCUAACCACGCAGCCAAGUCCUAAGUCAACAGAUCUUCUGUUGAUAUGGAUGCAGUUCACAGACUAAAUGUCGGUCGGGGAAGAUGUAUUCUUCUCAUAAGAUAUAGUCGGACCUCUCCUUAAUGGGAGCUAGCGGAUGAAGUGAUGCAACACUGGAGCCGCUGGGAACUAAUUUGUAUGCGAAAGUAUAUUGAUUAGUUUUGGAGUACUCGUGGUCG;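 further: selection with 25 µg/mL kanamycin versus none on LB agar overnight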
# conditionInfo: 37 °C
measuredMetric: self-splicing fitness (ln)
Answer using only a numeral; do not append any unit.

Consider the sequence shown here: CUCCAGCAAUAUUACGCACA What is its recorded self-splicing fitness (ln)?
-2.29

Quick check: self-splicing fitness (ln) of AGGUAGCAAUAUUACGCGUA ?
-0.701

Endpoint output: self-splicing fitness (ln) of CGCAAGCAAUAUUACGUAUA . Value?
-3.01

Dear colleague, I am looking for the recorded self-splicing fitness (ln) of the following sequence: AUUAAGCAAUAUUACGGAGC
-2.15

I have this sequence here, CCUCAGCAAUAUUACGCCCC , and I need its recorded self-splicing fitness (ln).
-1.39

# self-splicing fitness (ln) lookup, item CGGCAGCAAUAUUACGGACU
-1.34

// query self-splicing fitness (ln) value for entry UUGUAGCAAUAUUACGUCCA
-0.28

// self-splicing fitness (ln) lookup, key: GUGGAGCAAUAUUACGUCUC
-2.77

Form field: reported self-splicing fitness (ln) of GUUUAGCAAUAUUACGGGUA
-1.61

* * *

# measurementProtocol: self-splicing fitness, log relative to wild type (ln ratio); higher = more splicing; Tetrahymena group I intron in knt gene, E. coli kanamycin selection, DiMSum; sequences stand for … in CUCUCU…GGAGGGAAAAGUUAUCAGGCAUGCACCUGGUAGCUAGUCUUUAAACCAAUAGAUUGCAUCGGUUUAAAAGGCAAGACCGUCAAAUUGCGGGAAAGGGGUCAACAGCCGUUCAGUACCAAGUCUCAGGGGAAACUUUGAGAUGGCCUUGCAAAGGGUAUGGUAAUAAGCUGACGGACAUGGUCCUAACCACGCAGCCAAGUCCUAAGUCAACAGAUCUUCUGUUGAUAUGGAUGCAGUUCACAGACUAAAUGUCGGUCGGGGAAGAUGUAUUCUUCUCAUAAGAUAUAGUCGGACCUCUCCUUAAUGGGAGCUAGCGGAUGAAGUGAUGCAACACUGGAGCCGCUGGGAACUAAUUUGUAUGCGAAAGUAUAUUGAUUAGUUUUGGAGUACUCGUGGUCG
# conditionInfo: 37 °C
measuredMetric: self-splicing fitness (ln)
Format: numeric value only, no unit, no commentary.

Param item = UACUAGCAAUAUUACGGCUA ; retrieve measured self-splicing fitness (ln).
-0.671

Tell me the measured self-splicing fitness (ln) of AUCAAGCAAUAUUACGAGCU , please.
-0.596

Tell me the measured self-splicing fitness (ln) of GCGGAGCAAUAUUACGCGAG , please.
-2.39

Name the recorded self-splicing fitness (ln) for AAGCAGCAAUAUUACGAUGC .
-0.411

Fill in the blank: the reported self-splicing fitness (ln) of AUCGAGCAAUAUUACGAGGC is ____.
-1.13

For the sequence GCUUAGCAAUAUUACGUGCG , what self-splicing fitness (ln) is on record?
-0.6

For GCAGAGCAAUAUUACGGUAG , what is its reported self-splicing fitness (ln)?
-0.285

Given the sequence AUUAAGCAAUAUUACGAUCA , what is its reported self-splicing fitness (ln)?
-0.409
